FYI, the data here is from paper PMC3866151.

- system.under.test: Cqui\Orco+Cqui\Or21 (Culex quinquefasciatus)
- experimental.protocol: Inhibition of odorant (3-methylindole) activation of the OR expressed in Xenopus oocytes, two-electrode voltage clamp
- Format: cell-based
- particulars: 100 nM 3MI; read-out: IC50 for inhibition of responses to 3MI
observation.type: IC50 (µM)

>  <compound>
CCc1ccccc1NC(=O)C=Cc1cccs1

>  <observation.type>
IC50

>  <measured.result>
2.7

$$$$
>  <compound>
CCc1ccc(NC(=O)c2cccs2)cc1 [OX1a, N-(4-ethylphenyl)-2-thiophenecarboxamide]

>  <observation.type>
IC50

>  <measured.result>
42

$$$$
>  <compound>
Cc1cc(C)c(NC(=O)c2cccs2)c(C)c1 [OX1l, N-mesityl-2-thiophenecarboxamide]

>  <observation.type>
IC50

>  <measured.result>
16

$$$$
>  <compound>
Cc1ccc(CNC(=O)c2cccs2)cc1

>  <observation.type>
IC50

>  <measured.result>
2.3

$$$$

----------
Each item that follows carries a reported nH (apparent Hill coefficient of concentration-inhibition curve).
- system.under.test: Cqui\Orco+Cqui\Or21 (Culex quinquefasciatus)
- experimental.protocol: Antagonism of Orco agonist (OLC12) activation of the OR expressed in Xenopus oocytes, two-electrode voltage clamp
- Type: cell-based
- particulars: activated by 3 µM OLC12; Xenopus oocytes
observation.type: nH (apparent Hill coefficient of concentration-inhibition curve)

>  <compound>
Cc1ccc(CNC(=O)c2cccs2)cc1 [OX3a]

>  <measured.result>
1.0 ± 0.1

$$$$
>  <compound>
O=C(Nc1cccc(Cl)c1)c1sccc1Cl [OX1q]

>  <measured.result>
0.9 ± 0.1

$$$$
>  <compound>
CCc1ccc(NC(=O)c2cccs2)cc1 [OX1a, N-(4-ethylphenyl)-2-thiophenecarboxamide]

>  <measured.result>
1.0 ± 0.1

$$$$
>  <compound>
CCc1ccccc1NC(=O)C=Cc1cccs1 [OX4]

>  <measured.result>
0.9 ± 0.1

$$$$
>  <compound>
CC(=O)c1cccc(NC(=O)c2cccs2)c1 [OX1i]

>  <measured.result>
1.3 ± 0.1

$$$$
>  <compound>
CCc1ccccc1NC(=O)c1cccs1 [OX1j, N-(2-ethylphenyl)-2-thiophenecarboxamide]

>  <measured.result>
0.9 ± 0.1

$$$$
>  <compound>
Cc1cccc(NC(=O)c2cccs2)c1C [OX1k]

>  <measured.result>
0.8 ± 0.1

$$$$
>  <compound>
O=C(Nc1cccc(Cl)c1)c1cccs1 [OX1g]

>  <measured.result>
1.0 ± 0.1

$$$$
>  <compound>
Cc1ccc(NC(=O)c2sccc2Cl)c(C)c1 [OX1o]

>  <measured.result>
1.1 ± 0.1

$$$$
>  <compound>
Cc1cc(C)c(NC(=O)c2cccs2)c(C)c1 [OX1l, N-mesityl-2-thiophenecarboxamide]

>  <measured.result>
1.5 ± 0.1

$$$$
>  <compound>
O=C(NCc1ccccc1)c1cccs1 [OX3b, N-benzyl-2-thiophenecarboxamide]

>  <measured.result>
1.1 ± 0.1

$$$$
>  <compound>
Cc1cccc(C)c1NC(=O)c1sccc1Cl [OX1p]

>  <measured.result>
1.2 ± 0.1

$$$$

----------
- system.under.test: Cqui\Orco+Cqui\Or21 (Culex quinquefasciatus, UniProt Q309I4)
- Sequence (Q309I4 entry or part of it): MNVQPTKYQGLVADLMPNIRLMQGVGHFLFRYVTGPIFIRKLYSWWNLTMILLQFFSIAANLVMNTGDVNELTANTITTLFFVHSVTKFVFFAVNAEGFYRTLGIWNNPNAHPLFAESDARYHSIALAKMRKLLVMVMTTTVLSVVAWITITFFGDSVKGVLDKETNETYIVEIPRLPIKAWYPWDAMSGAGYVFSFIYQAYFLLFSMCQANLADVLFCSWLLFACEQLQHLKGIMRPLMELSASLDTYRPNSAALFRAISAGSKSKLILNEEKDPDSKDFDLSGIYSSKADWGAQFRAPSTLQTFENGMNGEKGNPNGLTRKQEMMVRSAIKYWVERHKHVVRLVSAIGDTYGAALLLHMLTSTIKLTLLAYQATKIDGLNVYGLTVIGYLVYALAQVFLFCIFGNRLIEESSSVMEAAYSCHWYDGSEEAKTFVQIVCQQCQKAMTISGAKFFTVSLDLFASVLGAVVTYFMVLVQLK
- experimental.protocol: Antagonism of Orco agonist (OLC12) activation of the OR expressed in Xenopus oocytes, two-electrode voltage clamp
- Assay type: cell-based
- particulars: activated by 10 µM OLC12; read-out: IC50 for inhibition of Cqui\Orco+Cqui\Or21 activation by OLC12
The following compounds are shown together with reported IC50 values.
observation.type: IC50 (µM)

>  <compound>
CCc1ccccc1NC(=O)C=Cc1cccs1

>  <value.units>
µM

>  <measured.result>
8.8

$$$$
>  <compound>
Cc1ccc(CNC(=O)c2cccs2)cc1

>  <value.units>
µM

>  <measured.result>
12

$$$$
>  <compound>
Cc1cc(C)c(NC(=O)c2cccs2)c(C)c1 [OX1l, N-mesityl-2-thiophenecarboxamide]

>  <value.units>
µM

>  <measured.result>
8.3

$$$$

----------
- system.under.test: Cqui\Orco+Cqui\Or21 (Culex quinquefasciatus, UniProt Q309I4)
- experimental.protocol: Antagonism of Orco agonist (OLC12) activation of the OR expressed in Xenopus oocytes, two-electrode voltage clamp
- Assay type: cell-based
- particulars: activated by 30 µM OLC12; read-out: IC50 for inhibition of Cqui\Orco+Cqui\Or21 activation by OLC12
pIC50: −log10 of the molar value.

>  <molecule>
Cc1cc(C)c(NC(=O)c2cccs2)c(C)c1 [OX1l, N-mesityl-2-thiophenecarboxamide]

>  <pIC50>
4.62

$$$$
>  <molecule>
CCc1ccccc1NC(=O)C=Cc1cccs1

>  <pIC50>
4.14

$$$$
>  <molecule>
Cc1ccc(CNC(=O)c2cccs2)cc1

>  <pIC50>
4.55

$$$$

----------
- system.under.test: Cqui\Orco+Cqui\Or21 (Culex quinquefasciatus, UniProt Q309I4)
- experimental.protocol: Inhibition of odorant (3-methylindole) activation of the OR expressed in Xenopus oocytes, two-electrode voltage clamp
- Assay type: cell-based
- particulars: 10 nM 3MI; read-out: IC50 for inhibition of responses to 3MI
pIC50: −log10 of the molar value.

>  <compound>
Cc1cc(C)c(NC(=O)c2cccs2)c(C)c1 [OX1l, N-mesityl-2-thiophenecarboxamide]

>  <pIC50>
4.77

$$$$
>  <compound>
Cc1ccc(CNC(=O)c2cccs2)cc1 [OX3a]

>  <pIC50>
5.59

$$$$
>  <compound>
CCc1ccc(NC(=O)c2cccs2)cc1 [OX1a, N-(4-ethylphenyl)-2-thiophenecarboxamide]

>  <pIC50>
4.33

$$$$
>  <compound>
CCc1ccccc1NC(=O)C=Cc1cccs1 [OX4]

>  <pIC50>
5.47

$$$$

----------
- system.under.test: Cqui\Orco+Cqui\Or21 (Culex quinquefasciatus, UniProt Q309I4)
- experimental.protocol: Antagonism of Orco agonist (OLC12) activation of the OR expressed in Xenopus oocytes, two-electrode voltage clamp
- Type: cell-based
- particulars: 30 µM compound, 3 µM OLC12
observation.type: Antagonist activity compared with the parent analog or OX1a (second screen)

>  <compound>
O=C(NCc1ccccc1)c1cccs1 [OX3b, N-benzyl-2-thiophenecarboxamide]

>  <measured.result>
well tolerated

$$$$
>  <compound>
O=C(Nc1cccc(Cl)c1)c1sccc1Cl

>  <measured.result>
well tolerated

$$$$
>  <compound>
CCc1ccccc1NC(=O)C=Cc1cccs1

>  <measured.result>
well tolerated

$$$$

----------
- system.under.test: Cqui\Orco+Cqui\Or21 (Culex quinquefasciatus, UniProt Q309I4)
- experimental.protocol: Inhibition of odorant (3-methylindole) activation of the OR expressed in Xenopus oocytes, two-electrode voltage clamp
- Type: cell-based
- particulars: 1 µM 3MI; read-out: IC50 for inhibition of responses to 3MI
pIC50: −log10 of the molar value.
# pIC50 listing for each entry below

>  <compound>
Cc1ccc(CNC(=O)c2cccs2)cc1 [OX3a]

>  <pIC50>
5.72

$$$$
>  <compound>
Cc1cc(C)c(NC(=O)c2cccs2)c(C)c1 [OX1l, N-mesityl-2-thiophenecarboxamide]

>  <pIC50>
4.72

$$$$
>  <compound>
CCc1ccc(NC(=O)c2cccs2)cc1 [OX1a, N-(4-ethylphenyl)-2-thiophenecarboxamide]

>  <pIC50>
4.30

$$$$
>  <compound>
CCc1ccccc1NC(=O)C=Cc1cccs1 [OX4]

>  <pIC50>
5.60

$$$$

----------
- system.under.test: Cqui\Orco+Cqui\Or21 (Culex quinquefasciatus)
- experimental.protocol: Agonist activation (concentration-response) of the OR expressed in Xenopus oocytes, two-electrode voltage clamp
- Format: cell-based
- particulars: read-out: EC50 for OLC12 activation of Cqui\Orco+Cqui\Or21
observation.type: EC50 (µM)

>  <smiles.repr>
CCn1c(SCC(=O)Nc2ccc(C(C)C)cc2)nnc1-c1ccncc1

>  <system.under.test>
Cqui\Orco+Cqui\Or21 (Culex quinquefasciatus)

>  <value.units>
µM

>  <measured.result>
6.6

$$$$

----------
- system.under.test: Cqui\Orco+Cqui\Or21 (Culex quinquefasciatus)
- experimental.protocol: Antagonism of Orco agonist (OLC12) activation of the OR expressed in Xenopus oocytes, two-electrode voltage clamp
- Assay type: cell-based
- particulars: OLC12 raised from 3 µM to 30 µM
observation.type: Mechanism of inhibition of Orco agonist (OLC12) activation

>  <compound>
Cc1cc(C)c(NC(=O)c2cccs2)c(C)c1 [OX1l, N-mesityl-2-thiophenecarboxamide]

>  <measured.result>
competitive mechanism

$$$$
>  <compound>
Cc1ccc(CNC(=O)c2cccs2)cc1

>  <measured.result>
competitive mechanism

$$$$
>  <compound>
CCc1ccccc1NC(=O)C=Cc1cccs1

>  <measured.result>
competitive mechanism

$$$$

----------
- system.under.test: Cqui\Orco+Cqui\Or21 (Culex quinquefasciatus)
- experimental.protocol: Agonist activation (concentration-response) of the OR expressed in Xenopus oocytes, two-electrode voltage clamp
- Assay type: cell-based
- particulars: 3MI alone; read-out: EC50 for activation of Cqui\Orco+Cqui\Or21 by 3MI
observation.type: EC50 (µM)

>  <smiles.repr>
Cc1c[nH]c2ccccc12

>  <measured.result>
0.032

$$$$
